# Test system: BGC-823 (human gastric cancer cells)
# Assay Protocol: MTT cancer cell growth inhibition
# Type: cell-based
# Experimental Parameters: Homo sapiens, BGC-823, 72 h, MTT, 72 hours incubation; read-out: GI50 BG
Measured Attribute: GI50 (nM)
Provide only the numeric value, understood in nM.

Example cases with answers are listed next.
Compound	GI50 / nM
C/C=C1\NC(=O)c2cc(F)cc(n2)CNC(=O)C[C@@H](/C=C/CCSC(=O)CCCCCCC)OC(=O)[C@H](Cc2ccccc2)NC1=O [Compound 70]	50
C=C1NC(=O)c2cccc(n2)CNC(=O)C[C@@H](/C=C/CCS)OC(=O)[C@H](C)NC1=O [Compound 139]	60
C/C=C1\NC(=O)c2cccc(n2)CNC(=O)C[C@@H](/C=C/CCSC(C)=O)OC(=O)[C@@H](C)NC1=O [Example 25]	3300
CC(=O)SCC/C=C/[C@@H]1CC(=O)NCc2cc(F)cc(n2)C(=O)NC(=C(C)C)C(=O)N[C@@H](C(C)C)C(=O)O1 [Compound 88]	30
C/C=C1\NC(=O)c2nc(ccc2C)CNC(=O)C[C@@H](/C=C/CCSC(C)=O)OC(=O)[C@H](Cc2ccccc2)NC1=O [Compound 66]	60
C/C=C1\NC(=O)c2cccc(n2)CCNC(=O)C[C@@H](/C=C/CCSC(C)=O)OC(=O)[C@H](C(C)C)NC1=O [Example 26]	5400
C/C=C1\NC(=O)c2nc(ccc2F)CNC(=O)C[C@@H](/C=C/CCSC(=O)CCCCCCC)OC(=O)[C@H](Cc2ccccc2)NC1=O [Example 69]	50
C/C=C1\NC(=O)c2cc(F)cc(n2)CNC(=O)C[C@@H](/C=C/CCSC(=O)CCC)OC(=O)[C@H](C(C)C)NC1=O [Compound 43]	30

Test item C/C=C1\NC(=O)c2cccc(n2)CNC(=O)C[C@@H](/C=C/CCSC=O)OC(=O)[C@H](C(C)C)NC1=O [Compound 8] ; BGC-823 (human gastric cancer cells); reported GI50 was 90

Test item C/C=C1\NC(=O)c2cccc(n2)CNC(=O)C[C@@H](/C=C/CCSC(C)=O)OC(=O)[C@H](Cc2ccc(O)cc2)NC1=O [Compound 18] ; BGC-823 (human gastric cancer cells); reported GI50 was 53100

Test item C/C=C1\NC(=O)c2ccc(F)c(n2)CCNC(=O)C[C@@H](/C=C/CCSC(C)=O)OC(=O)[C@H](C(C)C)NC1=O [Compound 105] ; BGC-823 (human gastric cancer cells); reported GI50 was 10

Test item C/C=C1\NC(=O)c2cccc(n2)CNC(=O)C[C@@H](/C=C/CCS)OC(=O)[C@@H](C)NC1=O [Compound 145] ; BGC-823 (human gastric cancer cells); reported GI50 was 60

Test item C/C=C1\NC(=O)c2ncc(F)c(n2)CNC(=O)C[C@@H](/C=C/CCSC(C)=O)OC(=O)[C@H](C)NC1=O [Compound 99] ; BGC-823 (human gastric cancer cells); reported GI50 was 60
